Listing of recorded pIC50 by entry.
# TARGET_OR_SYSTEM: HDM2 (Homo sapiens, UniProt Q00987)
# Construct: Thioredoxin (N); made in house; host or cells: E. coli strain BL21(DE3)Rosetta
# Sequence (Q00987 17-125): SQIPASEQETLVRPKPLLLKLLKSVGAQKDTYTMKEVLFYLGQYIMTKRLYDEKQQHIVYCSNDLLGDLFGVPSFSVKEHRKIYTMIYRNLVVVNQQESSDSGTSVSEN
# TEST_NAME: FRET assay (HDM2 inhibition; method not described in this part)
# Type: binding
# ASSAY_CONTEXT: Table 3
Please express pIC50 as -log10 of the molar concentration.

Worked examples, 8 compounds total:
- MOLECULE_SMILES: "C[C@@H](Nc1nc(C(=O)O)nc2nc(-c3nccs3)n(Cc3ccc(Cl)cc3)c12)C1CC1"
  pIC50: 7.01
- MOLECULE_SMILES: "C[C@@H](Nc1nc(C(=O)O)nc2nc(-c3nccs3)n(Cc3ccc(C(F)(F)F)cc3)c12)C1CCC1"
  pIC50: 8.10
- MOLECULE_SMILES: "CC(C)c1cnc(-c2nc3nc(C(=O)O)nc(N[C@H](C)C4CCC4)c3n2Cc2ccc(C(F)(F)F)cc2)s1"
  pIC50: 7.24
- MOLECULE_SMILES: "CC(C)c1ccnc(-c2nc3nc(C(=O)O)nc(N[C@H](C)C4CCC4)c3n2Cc2ccc(C(F)(F)F)cc2)n1"
  pIC50: 7.66
- MOLECULE_SMILES: "C[C@@H](Nc1nc(C(=O)O)nc2nc(-c3ncco3)n(Cc3ccc(C(F)(F)F)cc3)c12)C1CCC1"
  pIC50: 7.52
- MOLECULE_SMILES: "CC(C)c1csc(-c2nc3nc(C(=O)O)nc(N[C@H](C)C4CCC4)c3n2Cc2ccc(C(F)(F)F)cc2)n1"
  pIC50: 6.51
- MOLECULE_SMILES: "C[C@@H](Nc1nc(C(=O)O)nc2nc(-c3nccn3C)n(Cc3ccc(C(F)(F)F)cc3)c12)C1CCC1"
  pIC50: 6.79
- MOLECULE_SMILES: "Cc1cnc(-c2nc3nc(C(=O)O)nc(N[C@H](C)C4CCC4)c3n2Cc2ccc(C(F)(F)F)cc2)s1"
  pIC50: 7.38

Let us examine a further case.
stdin: Given C[C@@H](Nc1nc(C(=O)O)nc2nc(-c3ncccn3)n(Cc3ccc(C(F)(F)F)cc3)c12)C1CCC1 , state its recorded pIC50.
stdout: 7.16

----------
# TARGET_OR_SYSTEM: HDM2 (Homo sapiens, UniProt Q00987)
# Construct: Thioredoxin (N); made in house; host or cells: E. coli strain BL21(DE3)Rosetta
# TEST_NAME: HDM2 FRET assay (inhibition of binding of FITC labeled p53-pocket peptide to HDM2)
# ASSAY_CONTEXT: Table 23; read-out: FRET IC50
ENDPOINT_LABEL: IC50 (nM)
A number alone suffices; assume nM.

- COMPOUND: "COC1(c2nc3nc(-c4noc(=O)[nH]4)nc(-c4cncc(Cl)c4)c3n2C[C@H]2CC[C@H](C)CC2)CCCCC1C (relative stereo)"
  IC50 / nM: 7.64
- COMPOUND: "COC1(c2nc3nc(-c4noc(=O)[nH]4)nc(-c4cncc(Cl)c4)c3n2C[C@H]2CC[C@H](C)CC2)COC1"
  IC50 / nM: 9.44

Let us examine a further case.
stdin: Given COC1(c2nc3nc(-c4noc(=O)[nH]4)nc(-c4cncc(Cl)c4)c3n2C[C@H]2CC[C@H](C)CC2)CCCCC1 , state its recorded IC50.
stdout: 30.7

----------
# TARGET_OR_SYSTEM: HDM2 (Homo sapiens)
# Construct: Thioredoxin (N); made in house; host or cells: E. coli strain BL21(DE3)Rosetta
# TEST_NAME: HDM2 FRET assay (inhibition of binding of FITC labeled p53-pocket peptide to HDM2)
# ASSAY_CONTEXT: Table 9; read-out: FRET IC50
ENDPOINT_LABEL: log10 of IC50 (log10 of the value in nM)
Heads up: the numbers are on a log10 scale; they represent IC50 in nM.

Worked examples, 4 compounds total:
- COMPOUND: "C[C@@H](Nc1nc(C(=O)O)nc2nc(N3CC(C)(C)OC(C)(C)C3)n(Cc3ccc(C(F)(F)F)cc3)c12)C1CCC1"
  TARGET_OR_SYSTEM: "HDM2 (Homo sapiens)"
  log10 of IC50: 1.09
- COMPOUND: "C[C@@H]1COCCN1c1nc2nc(C(=O)O)nc(N[C@H](C)C3CCC3)c2n1Cc1ccc(C(F)(F)F)cc1"
  TARGET_OR_SYSTEM: "HDM2 (Homo sapiens)"
  log10 of IC50: 0.86
- COMPOUND: "C[C@@H](Nc1nc(C(=O)O)nc2nc(N3C[C@H]4C[C@@H]3CO4)n(Cc3ccc(C(F)(F)F)cc3)c12)C1CCC1"
  TARGET_OR_SYSTEM: "HDM2 (Homo sapiens)"
  log10 of IC50: 1.37
- COMPOUND: "Cc1cc(-c2ccccc2)nn1-c1nc2nc(C(=O)O)nc(N[C@H](C)C3CCC3)c2n1Cc1ccc(C(F)(F)F)cc1"
  TARGET_OR_SYSTEM: "HDM2 (Homo sapiens)"
  log10 of IC50: 2.48

stdin: Given C[C@@H](Nc1nc(C(=O)O)nc2nc(N3CCCC3c3ccccc3)n(Cc3ccc(C(F)(F)F)cc3)c12)C1CCC1 (single isomer, unassigned) [Example 9.64] , state its recorded log10 of IC50.
stdout: 1.01

stdin: Given C[C@@H](Nc1nc(-c2noc(=O)[nH]2)nc2nc(N3CCCCC3c3ccccc3)n(Cc3ccc(C(F)(F)F)cc3)c12)C1CCC1 (stereo partly drawn) , state its recorded log10 of IC50.
stdout: 1.10

----------
# TARGET_OR_SYSTEM: HDM2 (Homo sapiens, UniProt Q00987)
# Construct: Thioredoxin (N); made in house; host or cells: E. coli strain BL21(DE3)Rosetta
# TEST_NAME: FRET assay (HDM2 inhibition; method not described in this part)
# Assay type: binding
# ASSAY_CONTEXT: Table 2
pIC50: −log10 of the molar value.
Label 1 (yes) when pIC50 is at or above 7; anything below gets 0 (no).

A selection of reference data follows.
- MOLECULE_SMILES: "C[C@@H](Nc1nc(C(=O)O)nc2nc(-c3cnc(N(C)C)nc3)n(Cc3ccc(C(F)(F)F)cc3)c12)C1CC1"
  CATEGORY: "0 (no)"
- MOLECULE_SMILES: "COc1cccc(-c2nc3nc(C(=O)O)nc(N[C@H](C)C4CC4)c3n2Cc2ccc(C(F)(F)F)cc2)c1"
  CATEGORY: "0 (no)"
- MOLECULE_SMILES: "COc1ncc(-c2nc3nc(C(=O)O)nc(N[C@H](C)C4CCC4)c3n2Cc2ccc(C(F)(F)F)cc2)cc1Cl"
  CATEGORY: "1 (yes)"
- MOLECULE_SMILES: "COc1ccc(-c2nc3nc(C(=O)O)nc(N[C@H](C)C4CC4)c3n2Cc2ccc(C(F)(F)F)cc2)cc1"
  CATEGORY: "0 (no)"

stdin: Please tell me: is the compound C[C@@H](Nc1nc(C(=O)O)nc2nc(-c3ccc4sccc4c3)n(Cc3ccc(Cl)cc3)c12)C1CCC1 at or over 7 in terms of pIC50?
stdout: 1 (yes)

----------
# TARGET_OR_SYSTEM: HDM2 (Homo sapiens)
# Construct: Thioredoxin (N); made in house; host or cells: E. coli strain BL21(DE3)Rosetta
# TEST_NAME: HDM2 FRET assay (inhibition of binding of FITC labeled p53-pocket peptide to HDM2)
# ASSAY_CONTEXT: Table 21; read-out: FRET IC50
# Excerpt: Methods: An HDM2 FRET assay was developed to assess the compounds' inhibitory activity towards binding of p53 protein. […] Protein was purified using Ni-affinity chromatography, followed by size exclusion chromatography using Superdex 75 26/60 column. […] The HDM2 assay buffer contained 1x Phosphate Buffered Saline (Invitrogen, Cat#14190), 0.01% BSA (Jackson ImmunoResearch, Cat# 001-000-162), 0.01% Tween-20. […]
ENDPOINT_LABEL: pIC50
Please express pIC50 as -log10 of the molar concentration.

- COMPOUND: "COCC(c1ccccc1)c1nc2nc(-c3noc(=O)[nH]3)nc(N[C@H](C)C3CCC3)c2n1C[C@H]1CC[C@H](C)CC1 (single isomer, unassigned) [Example 21.41]"
  pIC50: 8.49
- COMPOUND: "C[C@@H](Nc1nc(C(=O)O)nc2nc(C3CCCC3c3ccccc3)n(Cc3ccc(C(F)(F)F)cc3)c12)C1CCC1 (single isomer, unassigned) [Example 21.5]"
  pIC50: 7.58
- COMPOUND: "COCC(c1ccccc1)c1nc2nc(-c3noc(=O)[nH]3)nc(N[C@H](C)C3CCC3)c2n1C[C@H]1CC[C@H](C)CC1 (single isomer, unassigned) [Example 21.42]"
  pIC50: 8.47
- COMPOUND: "C[C@@H](Nc1nc(C(=O)O)nc2nc(C3CCCCC3c3ccccc3)n(Cc3ccc(C(F)(F)F)cc3)c12)C1CCC1 (single isomer, unassigned) [Example 21.1]"
  pIC50: 7.99
- COMPOUND: "CC(c1nc2nc(-c3noc(=O)[nH]3)nc(N[C@H](C)C3CCC3)c2n1C[C@H]1CC[C@H](C)CC1)C1CCOCC1 (stereo partly drawn)"
  pIC50: 8.14

stdin: State its pIC50 on HDM2 (Homo sapiens): CC(c1ccccc1)c1nc2nc(-c3noc(=O)[nH]3)nc(N[C@H](C)C3CCC3)c2n1C[C@H]1CC[C@H](C)CC1 (single isomer, unassigned) [Example 21.15]
stdout: 8.69

stdin: State its pIC50 on HDM2 (Homo sapiens): C=C(c1ccccc1)c1nc2nc(-c3noc(=O)[nH]3)nc(N[C@H](C)C3CCC3)c2n1C[C@H]1CC[C@H](C)CC1
stdout: 8.72

stdin: State its pIC50 on HDM2 (Homo sapiens): C[C@@H](Nc1nc(C(=O)O)nc2nc(C3CCCCC3)n(C[C@H]3CC[C@H](C)CC3)c12)C1CCC1
stdout: 8.57

stdin: State its pIC50 on HDM2 (Homo sapiens): C[C@@H](Nc1nc(-c2noc(=O)[nH]2)nc2nc(C3CC3)n(C[C@H]3CC[C@H](C)CC3)c12)C1CCC1
stdout: 7.74

stdin: State its pIC50 on HDM2 (Homo sapiens): C[C@@H](Nc1nc(C(=O)O)nc2nc(C3CCCCC3c3ccccc3)n(Cc3ccc(C(F)(F)F)cc3)c12)C1CCC1 (single isomer, unassigned) [Example 21.2]
stdout: 8.63

stdin: State its pIC50 on HDM2 (Homo sapiens): C[C@@H](Nc1nc(C(=O)O)nc2nc(C3CCCC(=O)C3c3ccccc3)n(Cc3ccc(C(F)(F)F)cc3)c12)C1CCC1 (stereo partly drawn)
stdout: 8.06

stdin: State its pIC50 on HDM2 (Homo sapiens): Cc1nc2nc(C(=O)O)nc(N[C@H](C)C3CCC3)c2n1C[C@H]1CC[C@H](C)CC1
stdout: 7.00

Values compiled from patent EP2951180B1.
